Test: in vitro
Format: cell-based
Conditions: Chinese hamster
Procedure: Mammalian cell cytotoxicity was assessed to evaluate potential in vivo risks associated with the tetracycline compounds of the invention. A soluble, non-toxic redox dye (“Resazurin”; Alamar Blue) was used to assess a tetracycline compound's effect on cellular metabolism. […] Fluorescence measurements were taken (excitation 535 nm, emission 590 nm) and toxic effects in treated versus control cells were compared based on the degree of fluorescence in each well.
QUANTITY_MEASURED: IC50 at 24 h

input: Answer with reported IC50 at 24 h of CN(C)[C@@H]1C(O)=C(C(N)=O)C(=O)[C@@]2(O)C(O)=C3C(=O)c4cccc(-c5cnccn5)c4C[C@H]3C[C@@H]12 [Compound W]
output: > 75 µg/mL

input: Answer with reported IC50 at 24 h of CN(C)[C@@H]1C(O)=C(C(N)=O)C(=O)[C@@]2(O)C(O)=C3C(=O)c4c(O)ccc(CNOCC(F)F)c4C[C@H]3C[C@@H]12 [AR]
output: 35 to 75 µg/mL

input: Answer with reported IC50 at 24 h of CC(=NOC(C)(C)C)c1cc(N)c(O)c2c1C[C@H]1C[C@H]3[C@H](N(C)C)C(O)=C(C(N)=O)C(=O)[C@@]3(O)C(O)=C1C2=O [Compound Q]
output: < 35 µg/mL

---

Assign IC50 at 24 h to each entry below.
experiment: in vitro; format: cell-based; conditions: African green monkey

input: Answer with reported IC50 at 24 h of COC(=O)CONCc1ccc(O)c2c1C[C@H]1C[C@H]3[C@H](N(C)C)C(O)=C(C(N)=O)C(=O)[C@@]3(O)C(O)=C1C2=O
output: < 35 µg/mL

input: Answer with reported IC50 at 24 h of CN(C)[C@@H]1C(O)=C(C(N)=O)C(=O)[C@@]2(O)C(O)=C3C(=O)c4c(O)ccc(CNOCC(F)F)c4C[C@H]3C[C@@H]12
output: < 35 µg/mL

input: Answer with reported IC50 at 24 h of CCON=C(CCN(C)C)c1ccc(O)c2c1C[C@H]1C[C@H]3[C@@H](N(C)C)C(O)=C(C(N)=O)C(=O)[C@@]3(O)C(O)=C1C2=O
output: > 75 µg/mL

input: Answer with reported IC50 at 24 h of CCONCc1ccc2c(c1O)C(=O)C1=C(O)[C@]3(O)C(=O)C(C(N)=O)=C(O)[C@@H](N(C)C)[C@@H]3C[C@@H]1C2
output: < 35 µg/mL

input: Answer with reported IC50 at 24 h of CN(C)CCC(=NOC(C)(C)C)c1ccc(O)c2c1C[C@H]1C[C@H]3[C@H](N(C)C)C(O)=C(C(N)=O)C(=O)[C@@]3(O)C(O)=C1C2=O
output: 35 to 75 µg/mL

input: Answer with reported IC50 at 24 h of CCON=C(C)c1cc(CNCC(C)(C)C)c(O)c2c1C[C@H]1C[C@H]3[C@H](N(C)C)C(O)=C(C(N)=O)C(=O)[C@@]3(O)C(O)=C1C2=O
output: > 75 µg/mL

input: Answer with reported IC50 at 24 h of CN(C)[C@H]1C(O)=C(C(N)=O)C(=O)[C@@]2(O)C(O)=C3C(=O)c4c(O)ccc(CNOCC(F)(F)F)c4C[C@H]3C[C@@H]12
output: > 75 µg/mL

input: Answer with reported IC50 at 24 h of CN(C)[C@@H]1C(O)=C(C(N)=O)C(=O)[C@@]2(O)C(O)=C3C(=O)c4c(O)ccc(CNOCC(F)(F)F)c4C[C@H]3C[C@@H]12
output: < 35 µg/mL

input: Answer with reported IC50 at 24 h of CC(=NOC(C)(C)C)c1cc(N)c(O)c2c1C[C@H]1C[C@H]3[C@H](N(C)C)C(O)=C(C(N)=O)C(=O)[C@@]3(O)C(O)=C1C2=O
output: < 35 µg/mL

---

Assign MIC to each entry below.
tested on: B. thetaiotaomicron ATCC 29741; test: Antibacterial MIC, CLSI broth microdilution; type: cell-based; settings: Bacteroides thetaiotaomicron, ATCC29741; read-out: MIC B. thetaiotaomicron ATCC 29741

input: Answer with reported MIC of CN(C)CCC(=NOC(C)(C)C)c1ccc(O)c2c1C[C@H]1C[C@H]3[C@H](N(C)C)C(O)=C(C(N)=O)C(=O)[C@@]3(O)C(O)=C1C2=O [O]
output: < 4 µg/mL

input: Answer with reported MIC of CCO/N=C(/C)c1ccc(O)c2c1CC1CC3[C@H](N(C)C)C(O)=C(C(N)=O)C(=O)[C@@]3(O)C(O)=C1C2=O (stereo partly shown) [Compound A]
output: > 8 µg/mL

input: Answer with reported MIC of CCON=C(C)c1cc(N)c(O)c2c1C[C@H]1C[C@H]3[C@H](N(C)C)C(O)=C(C(N)=O)C(=O)[C@@]3(O)C(O)=C1C2=O [M]
output: 4 to 8 µg/mL

input: Answer with reported MIC of CN(C)[C@@H]1C(O)=C(C(N)=O)C(=O)[C@@]2(O)C(O)=C3C(=O)c4cccc(-c5cnccn5)c4C[C@H]3C[C@@H]12 [Compound W]
output: > 8 µg/mL

---

assay: in vitro; format: cell-based; conditions: Chinese hamster
QUANTITY_MEASURED: IC50 at 24 h

input: Answer with reported IC50 at 24 h of CN(C)[C@H]1C(O)=C(C(N)=O)C(=O)[C@@]2(O)C(O)=C3C(=O)c4c(O)ccc(CNOCC(F)(F)F)c4C[C@H]3C[C@@H]12
output: > 75 µg/mL

input: Answer with reported IC50 at 24 h of CC(C)ONCc1ccc(O)c2c1C[C@H]1C[C@H]3[C@H](N(C)C)C(O)=C(C(N)=O)C(=O)[C@@]3(O)C(O)=C1C2=O
output: < 35 µg/mL

input: Answer with reported IC50 at 24 h of CCONCc1ccc2c(c1O)C(=O)C1=C(O)[C@]3(O)C(=O)C(C(N)=O)=C(O)[C@@H](N(C)C)[C@@H]3C[C@@H]1C2
output: < 35 µg/mL
